meta.source: paper PMC6395926

Assay: Mass balance study: plasma PK of eravacycline, TP-498 and TP-6208 (LC-MS)
Format: in vivo, human
Conditions: male, human, plasma, iv, 60 mg; single i.v. dose of [14C]eravacycline, geometric mean (%CV), n = 2; read-out: Vss (volume of distribution)
readout label: Vd

Prompt: Can you share its Vd? I mean this compound: CN(C)[C@@H]1C(O)=C(C(N)=O)C(=O)[C@@]2(O)C(O)=C3C(=O)c4c(O)c(NC(=O)CN5CCCC5)cc(F)c4C[C@H]3C[C@@H]12
Response: 217 L

---

Assay: Drug interaction study with rifampin (CYP3A4 inducer): plasma PK of i.v. eravacycline and metabolites
Type: in vivo, human
Conditions: human, plasma, intravenous, 1 mg/kg; day 1, eravacycline alone; read-out: AUC0–t (distribution, as worded in the text)
readout label: AUC(0-t) (ng·h/mL)
Could you give me the number in ng·h/mL? Just the number is fine.

Prompt: What measured AUC(0-t) goes with CN(C)[C@@H]1C(O)=C(C(N)=O)C(=O)[C@@]2(O)C(O)=C3C(=O)c4c(O)c(NC(=O)CN5CCCC5)cc(F)c4C[C@H]3C[C@@H]12 [eravacycline] ?
Response: 4100
